Origin of measurements: patent US20190248902A1

Target: T1, recombinant, soluble human ASGR-1 (human, UniProt P07306 62-291)
T1 construct: biotinylated in the binning assay; also called soluble huASGR-1; Soluble ASGR-1 (Amgen)
T1 sequence: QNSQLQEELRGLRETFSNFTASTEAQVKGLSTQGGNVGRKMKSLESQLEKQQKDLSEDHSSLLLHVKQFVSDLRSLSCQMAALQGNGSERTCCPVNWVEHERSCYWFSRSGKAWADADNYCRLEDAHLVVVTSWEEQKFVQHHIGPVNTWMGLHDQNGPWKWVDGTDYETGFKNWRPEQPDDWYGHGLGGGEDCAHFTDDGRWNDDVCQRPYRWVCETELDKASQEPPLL
Test: Octet BLI dissociation, pH 5.6 plus calcium
recorded endpoint: % Change Compared to pH 7.4 + Calcium (%)
One number for each entry, in %.

Consider the reported % Change Compared to pH 7.4 + Calcium for these binders:
binder	value unit	numeric readout
197F2 (antibody, V domains shown, hybridoma mAb) VH: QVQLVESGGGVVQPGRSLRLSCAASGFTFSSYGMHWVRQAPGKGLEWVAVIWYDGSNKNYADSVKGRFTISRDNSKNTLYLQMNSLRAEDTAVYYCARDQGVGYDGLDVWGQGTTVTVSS VL: DIQMIQSPSSLSASVGDRVTITCRTSQGIGNYLAWFQQKPGKAPKSLLYKTSSLQSGVPSKFSGSGSGTDFTLTISSLQPEDFATYYFQQYITYPLTFGGGTKVEIK	%	-6
4B1 (antibody, V domains shown, hybridoma mAb) VH: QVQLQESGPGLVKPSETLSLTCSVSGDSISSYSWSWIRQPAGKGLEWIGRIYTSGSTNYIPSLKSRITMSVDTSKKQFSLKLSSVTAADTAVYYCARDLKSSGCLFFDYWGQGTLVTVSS VL: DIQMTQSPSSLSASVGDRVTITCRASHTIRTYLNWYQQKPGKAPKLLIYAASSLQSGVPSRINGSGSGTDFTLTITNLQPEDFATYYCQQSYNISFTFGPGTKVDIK	%	-5
191E10 (antibody, V domains shown, hybridoma mAb) VH: QVQLVESGGGVVQPGRSLRLSCAASGFTFSSYGMHWVRQAPGKGLEWVAVIWYDGSNKNYADSVKGRFTISRDNSKNTLYLQMNSLRAEDTAMYYCARDQGVGYDGLDVWGQGTSVTVSS VL: DIQMTQSPSSLSASVGDRVTITCRASQGIGKYLAWFQQKPGKAPKSLIYAASSLQSGVPSKFSGSGSGTDFTLTISSLQPENFATYYCQQYSTYPLTFGGGTKVEIK	%	-9
224G1 (antibody, V domains shown, hybridoma mAb) VH: QVQLVQSGAEVKKPGASVKVSCKASGYTFTGYYIHWVRQAPGQGLEWMGWINPYSGDTNYAQKFQGRVTMTRDTSISTAYMELSRLRFDDTAVFYCARDWGGYSSYYYGMDVWGQGTTVTVSS VL: DIVMTQTPLSLSVTPGQPASISCKSGQSLLHSDGKTFLSWYLQKPGQPPQLLIYEISNRFSGVPDRFSGSGSGTDFTLKISRVEAEDVGIFYCMQSTQLPRTFGQGTKVEIK	%	41

With those in mind, consider the next binder.
Prompt line: Which % Change Compared to pH 7.4 + Calcium is reported for this binder? 49F10 (antibody, V domains shown, hybridoma mAb) VH: QVQLVQSGAEVKKPGASVKVSCKASGYTFTGYHMHWVRQAPGQGLEWMGWINPNNNATNYAQNFQGRVTLTRDTSISTAYMELSRLRSDDTAVYYCARDGTSSFDFWGQGTLVTVSS VL: DIQMTQSPSSVSASVGDRVTITCRASQGISRWLAWYQQKPGKAPKVLIYAASTLQSGVPSRFSGSGSGTDFTLTISSLQPEDFATYYCQQANSFPFTFGPGTKVDIK
Response line: -2
